# EC50 values compiled below
- tgt: human glucagon receptor (Homo sapiens, UniProt P47871)
- Construct: expressed in transfected cells; host or cells: HEK293
- Sequence (P47871 26-477): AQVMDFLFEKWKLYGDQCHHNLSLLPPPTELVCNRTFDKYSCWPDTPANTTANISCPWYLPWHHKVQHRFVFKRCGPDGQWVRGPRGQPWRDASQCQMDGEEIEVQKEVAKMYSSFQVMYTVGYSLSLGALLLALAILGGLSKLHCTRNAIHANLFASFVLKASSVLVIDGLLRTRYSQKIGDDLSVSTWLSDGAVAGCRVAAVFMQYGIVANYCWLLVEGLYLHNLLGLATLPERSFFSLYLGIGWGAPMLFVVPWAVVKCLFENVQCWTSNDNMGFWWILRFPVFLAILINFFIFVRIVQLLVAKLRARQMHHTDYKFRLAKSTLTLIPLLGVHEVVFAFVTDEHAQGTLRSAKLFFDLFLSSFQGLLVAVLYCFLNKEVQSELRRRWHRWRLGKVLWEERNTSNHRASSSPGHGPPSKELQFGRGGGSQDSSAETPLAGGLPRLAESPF
- assay-details: cAMP formation in HEK293 cells expressing the human glucagon receptor
- Assay type: cell-based
- test-context: 15 min at 37° C., read-out: EC50 (nM) GuR

substance	EC50 / nM
H-HSQGTFTSDYSKYLDSRAAQDFVWLMNT-NH2 [Compound 246]	0.05
H-HSQGTFTSDYSRYLDSRRAQDFVWLLNK-NH2 [Compound 254]	0.2
H-HSQGTFTSDYSKYLDSRYAQDFVWLMNT-NH2 [Compound 247]	0.1
H-HSQGTFTSDYSKYLDSALAQDFVWLLNT-NH2 [Compound 255]	0.1
H-HSQGTFTSDYSKYLDSKAAQDFVWLMNT-NH2 [Compound 260]	0.07
H-HSQGTFTSDYSKYLDSKAAHDFVEWLLRA-NH2 [Compound 48]	0.06
H-HSQGTFTSDYSRYLDSRRAQDFVWLLNT-NH2 [Compound 253]	0.1
H-HSQGTFTSDYSKYLDKRRAEDFVWLMNT-NH2 [Compound 256]	0.07
H-HSQGTFTSDYSRYLDERRAQDFVWLMNT-NH2 [Compound 258]	0.06
H-HSQGTFTSDYSKYLDSRHAQDFVWLMNT-NH2 [Compound 244]	0.05
H-HSQGTFTSDYSKYLDSRSAQDFVWLMNT-NH2 [Compound 245]	0.05
